Examples of sequences with documented activity (normalized MEL-1) follow.
- System: ZFN7263 (host) (artificial)
- Test Method Notes: cell_activity
- Run Conditions: yeast, paired with 7264 ZFN
Parameter Measured: activity (normalized MEL-1)

INSERT INTO assay_data (query_sequence, quantitative_readout) VALUES
  ('ACTCTGCTGGAAG (double strand) [7263 yeast half-site gap C]', 0.05),
  ('ACTCTGACTGGAAG (double strand) [7263 yeast half-site gap AC]', 0.09),
  ('ACTCTGATGGAAG (double strand) [7263 yeast half-site gap A]', 0.05),
  ('ACTCTGGTGGAAG (double strand) [7263 yeast half-site gap G]', 0.09);

====

- Tested on: ZFP7264 linker TGGGGSQKP (artificial)
sequences and their reported binding signal (normalized ELISA)
Parameter Measured: binding signal (normalized ELISA)

INSERT INTO results (query_sequence, parameter_measured, quantitative_readout) VALUES
  ('TTAGTTAAAGCGAGCTCCGAATATC (double strand) [7264 target gap A]', 'binding signal (normalized ELISA)', 0.07),
  ('TTAGTTAAAGCGTTGCTCCGAATATC (double strand) [7264 target gap TT]', 'binding signal (normalized ELISA)', 0.03),
  ('TTAGTTAAAGCGGGCTCCGAATATC (double strand) [7264 target gap G]', 'binding signal (normalized ELISA)', 0.08),
  ('TTAGTTAAAGCGCTGCTCCGAATATC (double strand) [7264 target gap CT]', 'binding signal (normalized ELISA)', 0.07),
  ('TTAGTTAAAGCGTAGCTCCGAATATC (double strand) [7264 target gap TA]', 'binding signal (normalized ELISA)', 0.03),
  ('TTAGTTAAAGCGCGCTCCGAATATC (double strand) [7264 target gap C]', 'binding signal (normalized ELISA)', 0.04);

====

- Test system: ZFP7263 linker TYPRPLLAKP center linker F2-F3 TGSQKP replaced by TYPRPLLAKP (artificial)
- Test Method Notes: ELONA
- Run Conditions: normalized ELISA score
Outcome: condition met for binding signal of at least 2; condition not met for anything lower.

INSERT INTO measurements (query_sequence, assigned_label) VALUES
  ('TTAGCCACTCTGACTGGAAGTGTATC (double strand) [7263 target gap AC]', 'condition not met'),
  ('TTAGCCACTCTGTGGAAGTGTATC (double strand) [7263 target 0-bp gap]', 'condition not met'),
  ('TTAGCCACTCTGTTGGAAGTGTATC (double strand) [7263 target gap T]', 'condition met'),
  ('TTAGCCACTCTGGTGGAAGTGTATC (double strand) [7263 target gap G]', 'condition met'),
  ('TTAGCCACTCTGCTGGAAGTGTATC (double strand) [7263 target gap C]', 'condition not met');

====

# binding signal (normalized ELISA) per entry for ZFP7264 linker TSRPRPKP (artificial)
Parameter Measured: binding signal (normalized ELISA)

INSERT INTO measurements (query_sequence, quantitative_readout) VALUES
  ('TTAGTTAAAGCGCGCTCCGAATATC (double strand) [7264 target gap C]', 0.22),
  ('TTAGTTAAAGCGGGCTCCGAATATC (double strand) [7264 target gap G]', 0.77),
  ('TTAGTTAAAGCGTAGCTCCGAATATC (double strand) [7264 target gap TA]', 0.03),
  ('TTAGTTAAAGCGAGCTCCGAATATC (double strand) [7264 target gap A]', 0.52),
  ('TTAGTTAAAGCGCTGCTCCGAATATC (double strand) [7264 target gap CT]', 0.03),
  ('TTAGTTAAAGCGTTGCTCCGAATATC (double strand) [7264 target gap TT]', 0.03);
